Test system: MDA-MB-435 melanoma
protocol notes: NCI-60 one-dose screen, 48 h
experimental context: 10 µM unless noted
About 83,000 compounds went through this panel and 20% of them were active in at least one assay; those are over-represented in the sample as a whole. Active and inactive are the calls of the source. The calls were made as follows: active = growth percent below 10; inactive = the rest.
Choose the fitting class; nothing outside active, inactive is accepted.

These solved cases illustrate the format of a correct answer.
| compound | label |
| --- | --- |
| Cc1ccc(O)c(N2C(=NCc3ccco3)NS(=O)(=O)c3cnccc32)c1 | inactive |
| COc1ccc(CCNc2nc3c(c(=O)n(Cc4ccc(Br)cc4)c(=O)n3C)n2C)cc1OC | inactive |
| CN(C)c1ccc(N=Nc2ccc(Br)cn2)c(O)c1 | inactive |
| CC[C@@H](C(=O)[C@@H](C)[C@@H](O)[C@H](C)[C@@H]1O[C@@H]([C@@H](CC)C(=O)O)CC[C@@H]1C)[C@H]1OC2(C=C[C@@H](O)[C@]3(CC[C@@](C)([C@H]4CC[C@](O)(CC)[C@H](C)O4)O3)O2)[C@H](C)C[C@@H]1C (some centres not stated) | active |

Each compound tested received a call. Report the one for "Clc1ccc2c(NCCCCNc3nc(N4CCCCC4)nc4ccccc34)ccnc2c1" .
active

Check the results log: what was the call for "COc1ccc(/C=C/c2nc3ccccc3nc2/C=C/c2ccc(OC)cc2)cc1" ?
inactive

Call for entry "Cc1cc(C)nc(SC2=C(Nc3cccc(Cl)c3)C(=O)N(Cc3ccccc3)C2=O)n1" :
inactive

Outcome logged for "COc1ccc(C(=O)/C=C/c2cccnc2Nc2cc(OC)c(OC)c(OC)c2)cc1" in this assay:
active

Any idea what this test logged for "CC(=O)Nc1ccc(-n2c(O)c(/C=N/NC(=O)Cc3ccccc3Nc3c(Cl)cccc3Cl)sc2=S)cc1" ?
inactive

Returns: the outcome recorded for "C=C(C)[C@@H]1CC[C@]2(C(=O)OC)CC[C@]3(C)[C@H](CC[C@@H]4[C@@]5(C)C/C(=C/c6cccc(I)c6)C(=O)C(C)(C)[C@@H]5CC[C@]43C)[C@@H]12" in this assay.
inactive

Tell me the recorded outcome of this test for "CN(C)S(=O)(=O)c1cccc(-c2nc3sc4c(c3c(=O)[nH]2)CCCC4)c1" .
inactive

Which outcome did this test record for the compound "Cc1cc(N2CCN(c3ccnc4cc(Cl)ccc34)CC2)nc(N2CCOCC2)n1" ?
inactive

In this assay, the call recorded for "Cc1ccc2c(c1)C(=O)/C(=C/c1cccc(OCC(=O)c3ccc(Cl)cc3)c1)CS2" was what?
inactive

Please share the test call associated with "O=C1c2cc3c(cc2-c2c1c1cc(F)c(F)cc1c(=O)n2CCCn1ccnc1)OCO3" .
active

In this assay, the call recorded for "Cc1cc2nc3[nH]c4ccccc4c3nc2cc1C" was what?
inactive

Outcome? "Clc1ccc2c(NCCCNc3nc(-n4ccnc4)nc4ccccc34)ccnc2c1"
inactive

Any idea what this test logged for "CCCCCC(=O)Oc1ccc(/C(=C(\C)c2ccc(OC)cc2)c2ccc(OCCN3CCCCC3)cc2)cc1" ?
inactive

Each compound tested received a call. Report the one for "COc1ccc(C(=O)COc2ccc(/C=C3\COc4ccc(OC)cc4C3=O)cc2)cc1" .
inactive

Status in this test for "CC(=O)c1cc2c(N)c(C(=O)Nc3cccc(F)c3C)sc2nc1C" ?
active

State the result this test recorded for Cc1ccc2c(C(C[N+](=O)[O-])c3ccccc3)c(-c3ccccc3)[nH]c2c1 (configuration not stated) .
active

Entry "O=Nc1c(O)c(Cl)cc2ccccc12" : call = ?
inactive

Query: recorded result category for "O=c1ccccc(-c2ccc(-c3ccco3)cc2)c1O" in this test
inactive
